Source: ChEMBL document CHEMBL3992504

- assay_details: Tmax in rat at 10 mg/kg administered via oral gavage by LC/MS/MS analysis
- Assay type: ADME, organism-based
- condition_label: in vivo

>  <compound>
COc1cc(CCN(C)C)c(C)cc1Nc1ncc(Cl)c(Nc2ccccc2S(=O)(=O)C(C)C)n1

>  <Tmax, h>
4

$$$$
>  <compound>
Cc1cc(Nc2ncc(Cl)c(Nc3ccccc3S(=O)(=O)C(C)C)n2)c(OC(C)C)cc1C1CCNCC1 [CERITINIB]

>  <Tmax, h>
7.33

$$$$

* * *

- measured_on: ALK tyrosine kinase receptor (Homo sapiens, UniProt Q9UM73, C1156Y)
- Sequence (Q9UM73 19-1620 C1156Y limits assumed): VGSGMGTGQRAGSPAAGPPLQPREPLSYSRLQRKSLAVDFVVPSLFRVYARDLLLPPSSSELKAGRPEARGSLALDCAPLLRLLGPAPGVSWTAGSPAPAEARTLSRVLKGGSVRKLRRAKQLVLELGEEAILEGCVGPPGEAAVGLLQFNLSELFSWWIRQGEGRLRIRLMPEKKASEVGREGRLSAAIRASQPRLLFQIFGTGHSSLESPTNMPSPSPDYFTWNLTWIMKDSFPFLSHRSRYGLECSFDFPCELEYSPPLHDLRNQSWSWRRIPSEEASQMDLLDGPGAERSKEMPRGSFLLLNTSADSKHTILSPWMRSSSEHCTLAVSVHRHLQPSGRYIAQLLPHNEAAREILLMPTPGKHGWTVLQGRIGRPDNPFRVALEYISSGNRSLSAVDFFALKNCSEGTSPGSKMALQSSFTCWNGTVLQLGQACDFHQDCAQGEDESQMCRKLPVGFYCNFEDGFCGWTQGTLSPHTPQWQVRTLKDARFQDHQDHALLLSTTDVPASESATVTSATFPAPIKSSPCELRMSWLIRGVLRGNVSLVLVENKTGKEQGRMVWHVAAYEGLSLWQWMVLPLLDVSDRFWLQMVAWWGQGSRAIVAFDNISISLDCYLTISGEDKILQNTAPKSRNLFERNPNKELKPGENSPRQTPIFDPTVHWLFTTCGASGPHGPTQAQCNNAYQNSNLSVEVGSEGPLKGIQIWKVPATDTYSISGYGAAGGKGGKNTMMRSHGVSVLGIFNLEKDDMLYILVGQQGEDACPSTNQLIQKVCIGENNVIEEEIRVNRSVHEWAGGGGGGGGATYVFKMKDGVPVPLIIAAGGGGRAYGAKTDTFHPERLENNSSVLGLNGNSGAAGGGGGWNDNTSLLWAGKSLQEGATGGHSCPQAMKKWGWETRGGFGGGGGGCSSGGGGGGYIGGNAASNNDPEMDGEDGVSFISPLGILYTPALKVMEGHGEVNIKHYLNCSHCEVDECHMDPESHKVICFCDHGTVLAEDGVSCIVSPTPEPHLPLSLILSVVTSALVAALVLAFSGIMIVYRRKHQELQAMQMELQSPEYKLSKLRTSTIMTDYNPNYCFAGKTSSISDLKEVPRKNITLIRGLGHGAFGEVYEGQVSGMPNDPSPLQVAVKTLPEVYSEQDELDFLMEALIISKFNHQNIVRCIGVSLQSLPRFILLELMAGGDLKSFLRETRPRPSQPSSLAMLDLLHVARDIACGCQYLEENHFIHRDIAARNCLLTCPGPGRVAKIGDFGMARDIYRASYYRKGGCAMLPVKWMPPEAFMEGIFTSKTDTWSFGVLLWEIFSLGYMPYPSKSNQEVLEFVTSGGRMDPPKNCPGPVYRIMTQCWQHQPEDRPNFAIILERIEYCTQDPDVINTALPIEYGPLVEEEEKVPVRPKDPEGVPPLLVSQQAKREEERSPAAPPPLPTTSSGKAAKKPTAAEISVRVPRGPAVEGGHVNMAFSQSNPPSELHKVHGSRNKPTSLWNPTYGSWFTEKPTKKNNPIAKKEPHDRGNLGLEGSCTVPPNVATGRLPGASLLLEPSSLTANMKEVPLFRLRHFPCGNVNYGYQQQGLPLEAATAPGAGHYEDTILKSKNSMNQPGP
- assay_details: Inhibition of ALK C1156Y mutant (unknown origin) using peptide as substrate measured after 30 mins by fluorescence assay
measured_attribute: IC50 (nM)

>  <smiles_text>
COc1cc(CCN(C)C)c(C)cc1Nc1ncc(Cl)c(Nc2ccccc2S(=O)(=O)C(C)C)n1

>  <unit_text>
nM

>  <recorded_number>
1.1

$$$$

* * *

Reported values: log10 CC50 for ALK tyrosine kinase receptor (Homo sapiens), one per item.
measured_attribute: log10 CC50 (log10 of the value in nM)

>  <smiles_text>
COc1cc(CCN)c(C)cc1Nc1ncc(Cl)c(Nc2ccccc2S(=O)(=O)C(C)C)n1

>  <measured_on>
ALK tyrosine kinase receptor (Homo sapiens)

>  <log10 CC50>
1.83

$$$$
>  <smiles_text>
CNC(C)(C)c1cc(OC)c(Nc2ncc(Cl)c(Nc3ccccc3S(=O)(=O)C(C)C)n2)cc1C

>  <measured_on>
ALK tyrosine kinase receptor (Homo sapiens)

>  <log10 CC50>
1.18

$$$$
>  <smiles_text>
COc1cc(CNC=O)c(C)cc1Nc1ncc(Cl)c(Nc2ccccc2S(=O)(=O)C(C)C)n1

>  <measured_on>
ALK tyrosine kinase receptor (Homo sapiens)

>  <log10 CC50>
1.18

$$$$
>  <smiles_text>
COc1cc(C(C)(C)N)c(C)cc1Nc1ncc(Cl)c(Nc2ccccc2S(=O)(=O)C(C)C)n1

>  <measured_on>
ALK tyrosine kinase receptor (Homo sapiens)

>  <log10 CC50>
1.08

$$$$
>  <smiles_text>
CNCc1cc(OC)c(Nc2ncc(Cl)c(Nc3ccccc3S(=O)(=O)C(C)C)n2)cc1C

>  <measured_on>
ALK tyrosine kinase receptor (Homo sapiens)

>  <log10 CC50>
1.18

$$$$
>  <smiles_text>
COc1cc(CC#N)c(C)cc1Nc1ncc(Cl)c(Nc2ccccc2S(=O)(=O)C(C)C)n1

>  <measured_on>
ALK tyrosine kinase receptor (Homo sapiens)

>  <log10 CC50>
1.79

$$$$
>  <smiles_text>
COc1cc(C(C)(C)CN(C)C)c(C)cc1Nc1ncc(Cl)c(Nc2ccccc2S(=O)(=O)C(C)C)n1

>  <measured_on>
ALK tyrosine kinase receptor (Homo sapiens)

>  <log10 CC50>
1.15

$$$$
>  <smiles_text>
CNCC(C)(C)c1cc(OC)c(Nc2ncc(Cl)c(Nc3ccccc3S(=O)(=O)C(C)C)n2)cc1C

>  <measured_on>
ALK tyrosine kinase receptor (Homo sapiens)

>  <log10 CC50>
1.28

$$$$
>  <smiles_text>
COc1cc(CCN(C)C)c(C)cc1Nc1ncc(Cl)c(Nc2ccccc2S(=O)(=O)C(C)C)n1

>  <measured_on>
ALK tyrosine kinase receptor (Homo sapiens)

>  <log10 CC50>
1.00

$$$$
>  <smiles_text>
COc1cc(C(C)(C)C#N)c(C)cc1Nc1ncc(Cl)c(Nc2ccccc2S(=O)(=O)C(C)C)n1

>  <measured_on>
ALK tyrosine kinase receptor (Homo sapiens)

>  <log10 CC50>
2.40

$$$$
>  <smiles_text>
COc1cc(CN(C)C)c(C)cc1Nc1ncc(Cl)c(Nc2ccccc2S(=O)(=O)C(C)C)n1

>  <measured_on>
ALK tyrosine kinase receptor (Homo sapiens)

>  <log10 CC50>
1.32

$$$$
>  <smiles_text>
COc1cc(C(C)(C)CNC=O)c(C)cc1Nc1ncc(Cl)c(Nc2ccccc2S(=O)(=O)C(C)C)n1

>  <measured_on>
ALK tyrosine kinase receptor (Homo sapiens)

>  <log10 CC50>
1.58

$$$$
>  <smiles_text>
CNCCc1cc(OC)c(Nc2ncc(Cl)c(Nc3ccccc3S(=O)(=O)C(C)C)n2)cc1C

>  <measured_on>
ALK tyrosine kinase receptor (Homo sapiens)

>  <log10 CC50>
1.11

$$$$
>  <smiles_text>
COc1cc(C(C)(C)CN)c(C)cc1Nc1ncc(Cl)c(Nc2ccccc2S(=O)(=O)C(C)C)n1

>  <measured_on>
ALK tyrosine kinase receptor (Homo sapiens)

>  <log10 CC50>
1.56

$$$$
>  <smiles_text>
COc1cc(CCNC=O)c(C)cc1Nc1ncc(Cl)c(Nc2ccccc2S(=O)(=O)C(C)C)n1

>  <measured_on>
ALK tyrosine kinase receptor (Homo sapiens)

>  <log10 CC50>
1.78

$$$$
>  <smiles_text>
COc1cc(C(C)(C)NC=O)c(C)cc1Nc1ncc(Cl)c(Nc2ccccc2S(=O)(=O)C(C)C)n1

>  <measured_on>
ALK tyrosine kinase receptor (Homo sapiens)

>  <log10 CC50>
1.38

$$$$
>  <smiles_text>
COc1cc(C(C)(C)N(C)C)c(C)cc1Nc1ncc(Cl)c(Nc2ccccc2S(=O)(=O)C(C)C)n1

>  <measured_on>
ALK tyrosine kinase receptor (Homo sapiens)

>  <log10 CC50>
1.30

$$$$
